Reference source for all entries: PubChem BioAssay AID844

System: MRP1 cells, doxorubicin viability shift, 10 uM compound
assay-method-text: viability protection against doxorubicin, MRP-1 line – cell-based, doxorubicin EC50 shift, dose response (AID 844)
Assign met whenever fold increase in Dox EC50 does not fall below 0.8; assign not met whenever it does.

Illustrative cases are given below, each with its answer.
COC1(OC)C(=N/O)/C(=N\O)CCC1O (stereo unspecified); not met
COc1ccc(-c2cc3nc(C)cc(N4CC(C)CC(C)C4)n3n2)cc1 (stereo unspecified); not met

Could you please find out whether O=C(NN1C(=O)/C(=C\c2cccnc2)SC1=S)C(c1ccccc1)c1ccccc1 has fold increase in Dox EC50 that meets 0.8 or exceeds it?
met

Could you please find out whether CC(C(=O)N1c2ccccc2CCc2ccccc21)n1nnc(-c2ccc(N(C)C)cc2)n1 (stereo unspecified) has fold increase in Dox EC50 that meets 0.8 or exceeds it?
met

Could you please find out whether O=C(NCc1ccccc1)C(c1ccc(O)cc1)N(C(=O)Cn1nnc(-c2cccs2)n1)c1ccc2c(c1)OCCO2 (stereo unspecified) has fold increase in Dox EC50 that meets 0.8 or exceeds it?
met

Could you please find out whether COc1ccc(CN=C2NC(=O)CC(C(=O)Nc3ccccc3C)S2)cc1 (stereo unspecified) has fold increase in Dox EC50 that meets 0.8 or exceeds it?
met

====

Test system: MRP1 cells, doxorubicin viability shift, 10 uM compound
assay-method-text: viability protection against doxorubicin, MRP-1 line – cell-based, doxorubicin EC50 shift, dose response (AID 844)
Just a reminder that ties go to condition not met: only fold increase in Dox EC50 strictly below 0.9 counts as condition met.

Illustrative cases are given below, each with its answer.
COc1ccc(OCc2nc(C#N)c(N3CCN(c4ccc(OC)cc4)CC3)o2)cc1; condition met
CC12CCC(c3nnc(SCc4ccc(Cl)cc4)nc31)C2(C)C (stereo unspecified); condition not met
O=C(Nc1cccc([N+](=O)[O-])c1)c1[nH]ncc1Cl; condition met

I'd appreciate it if you could check whether O=C(NNC(=O)c1cccc(S(=O)(=O)N2CCN(c3ccccc3)CC2)c1)c1ccc(Cl)cc1 has fold increase in Dox EC50 smaller than 0.9.
condition not met

====

Test system: MRP1 cells, doxorubicin viability shift, 10 uM compound
assay-method-text: viability protection against doxorubicin, MRP-1 line – cell-based, doxorubicin EC50 shift, dose response (AID 844)
parameter-measured: fold increase in Dox EC50
Answer with a number only.

The following molecules have reported results that may help.
CCCC(=O)NC(=S)Nc1ccc(C(C)=O)cc1; 0.46
Cc1cc(C)cc(-c2nc(-c3ccncc3)no2)c1; 0.77
Brc1ccc(OCc2nnc3n2CCC3)cc1; 1.67

GET fold increase in Dox EC50 | system: MRP1 cells, doxorubicin viability shift, 10 uM compound | item: CN(C)C(=O)Oc1ccc(OC(=O)c2ccccc2)cc1
1.17

GET fold increase in Dox EC50 | system: MRP1 cells, doxorubicin viability shift, 10 uM compound | item: CC(CCc1ccccc1)NC(=O)CN1CCN(Cc2ccc(Cl)cc2)C1=O (stereo not given)
1.03

GET fold increase in Dox EC50 | system: MRP1 cells, doxorubicin viability shift, 10 uM compound | item: Cc1cc(C)nc(NS(=O)(=O)c2ccc(NC(=O)c3ccc4c(c3)OCO4)cc2)n1
0.94

====

Overview of recorded fold increase in Dox EC50 for various compounds
Test system: MRP1 cells, doxorubicin viability shift, 10 uM compound
assay-method-text: viability protection against doxorubicin, MRP-1 line – cell-based, doxorubicin EC50 shift, dose response (AID 844)
Answer with a number only.

The following compounds have reported results that may help.
CC(=O)Nc1ccc2[nH]c(C)c(CC=C(Cl)Cl)c(=O)c2c1; 0.72
COc1ccc(-n2c(SCC(=O)Nc3ccccc3)nc3c(c2=O)SCC3)cc1; 0.22
c1ccc(-c2ccc(-c3nc(-c4ccncc4)no3)cc2)cc1; 0.41
CCNc1sc(C(=O)c2cccs2)c(N)c1-c1nc2ccccc2s1; 0.59
O=C(CCc1ccccc1)N/N=C/c1cc(Br)ccc1O; 0.12

Answer with reported fold increase in Dox EC50 of COc1cc(S(=O)(=O)Nc2cccc(C)c2)ccc1NC(=O)c1ccncc1
0.6

Answer with reported fold increase in Dox EC50 of CCOc1ccc(Cn2nnc(C(=O)NCCc3ccc(Cl)cc3)c2N)cc1
1.6

====

System: MRP1 cells, doxorubicin viability shift, 10 uM compound
assay-method-text: viability protection against doxorubicin, MRP-1 line – cell-based, doxorubicin EC50 shift, dose response (AID 844)
Categories are defined by ranges of fold increase in Dox EC50, namely I (below 0.7), II (0.7 to below 1), III (1 or more)

Assign a category based on measured fold increase in Dox EC50 for Cc1nc(=O)c(-c2ccccc2)c(C)n1-c1ccc(O)cc1 and give only the class name.
III

Assign a category based on measured fold increase in Dox EC50 for CCCCCn1c(CN2CCCCC2C)nc2c1c(=O)n(C)c(=O)n2C (centres undefined) and give only the class name.
I

Assign a category based on measured fold increase in Dox EC50 for CCOc1ccccc1Nc1ncnc2c1cnn2-c1ccccc1 and give only the class name.
I

Assign a category based on measured fold increase in Dox EC50 for CCCC(=O)c1ccc(N2CCOCC2)c(F)c1 and give only the class name.
III

Assign a category based on measured fold increase in Dox EC50 for CC(C)(C)c1ccc(-c2nc(-c3ccncc3)no2)cc1 and give only the class name.
II

====

System: MRP1 cells, doxorubicin viability shift, 10 uM compound
assay-method-text: viability protection against doxorubicin, MRP-1 line – cell-based, doxorubicin EC50 shift, dose response (AID 844)
Activity calls are given as the source filed them. The rule behind the calls is not given here.
// one of active, inactive, no free text

Illustrative cases are given below, each with its answer.
CCOC(=O)c1cnn(-c2ccccn2)c1N; inactive
Cc1cc(C)cc(NC(=O)c2oc3ccccc3c2COc2ccccc2)c1; inactive
CN=c1scc(C)n1/N=C/c1ccc(O)c(O)c1O; inactive
O=C(NNC1=C(C(=O)C(F)(F)F)CCC1)c1ccc(Cl)cc1; inactive
CCOC(=O)c1ccccc1NC(=O)C1COc2ccccc2O1 (configuration not stated); inactive
CCOc1ccccc1NC(=O)c1cccc(NC(=O)CC(c2ccccc2)c2ccccc2)c1; inactive
O=C(NCCc1ccccc1)C(=O)c1c(-c2ccccc2)cc2ccccn12; inactive
CCN(CC)S(=O)(=O)c1cc(NC(=O)C(=O)c2c(-c3ccccc3)cc3ccccn23)ccc1C; inactive
O=C1Nc2ccccc2CCC1Sc1nnc(-c2ccc(Cl)cc2)s1 (configuration not stated); inactive
NC1=NC(=O)/C(=C/c2cn(CCC(=O)O)nc2-c2ccc(Cl)cc2)S1; inactive

Lab log entry: CNC(=O)CSc1nnc(COc2ccc(Cl)cc2)n1CCOC — outcome as called in the assay?
inactive

Lab log entry: CCN(CC)S(=O)(=O)c1ccc2c(c1)nc(SCn1nnc3ccccc3c1=O)n2CC — outcome as called in the assay?
inactive

Lab log entry: N#CC(C#N)=NNc1ccc(S(=O)(=O)N2CCCC2)cc1 — outcome as called in the assay?
inactive

Lab log entry: CCOC(=O)c1c(NC(=O)CSc2ncn[nH]2)sc(C)c1C — outcome as called in the assay?
inactive

Lab log entry: Cc1sc2nc(C3CC3)nc(N3CCN(S(=O)(=O)c4ccc(F)cc4)CC3)c2c1C — outcome as called in the assay?
inactive

Lab log entry: N=C(N)SCc1cccc2ccccc12 — outcome as called in the assay?
inactive

Lab log entry: C=CCc1c(C)nc(-c2ccccc2)nc1N/N=C/c1ccccc1 — outcome as called in the assay?
inactive

Lab log entry: CCC(=O)N1CCN=C1SCc1ccccc1 — outcome as called in the assay?
inactive

Lab log entry: Cc1cc(C(=O)OCC(=O)Nc2ccc(F)c(F)c2)c(C)o1 — outcome as called in the assay?
active

Lab log entry: Cc1onc(-c2ccccc2Cl)c1C(=O)OCC(=O)Nc1ccc2c(c1)OCO2 — outcome as called in the assay?
inactive

Lab log entry: COc1cc(C)ccc1N(CCCN1C(=O)c2cccc3cccc(c23)C1=O)C(=O)c1cccs1 — outcome as called in the assay?
inactive

Lab log entry: CCOC(=O)c1c(-c2cccs2)csc1NC(=O)CSc1ncn[nH]1 — outcome as called in the assay?
inactive

====

Test system: MRP1 cells, doxorubicin viability shift, 10 uM compound
assay-method-text: viability protection against doxorubicin, MRP-1 line – cell-based, doxorubicin EC50 shift, dose response (AID 844)
The source made the active and inactive calls. How the calls were made is not given here.
parameter-measured: fold increase in Dox EC50

The following compounds have reported results that may help.
COc1ccc(N2C(S)=C(C#N)C(=O)NC2c2ccco2)cc1 (centres undefined); 0.41 (inactive)
CCC1SC2=NC(C)=C(C(=O)OCCOC)C(c3ccc(C(=O)OC)cc3)N2C1=O (centres undefined); 0.92 (inactive)
CCn1c(COc2ccc(Cl)cc2)nnc1SC1CCc2ccccc2C1=O (centres undefined); 0.71 (inactive)

Answer with reported fold increase in Dox EC50 of Fc1ccc(-n2nnnc2-c2cnc(-c3cccs3)nc2C(F)(F)F)cc1
0.6 (inactive)
